ASSAY: 14C assay with IPTG-induced recombinant E. coli cells (14CO2 capture from [14C]-carboxyl-labeled dicamba)
MEASUREMENT SETUP: IPTG-induced recombinant E. coli cells; [14C]-carboxyl-labeled dicamba; 14CO2 capture
PROPERTY LABEL: Dicamba Decarboxylase Activity

MOLECULE	REPORTED RESULT
75 (protein, listed as Ectocarpus siliculosus) MAKIDSYTHFACPAFMDHLEAESGHPMVFRGLFSSIPELSDIDLRIRYMDEHGIDVHCLVPLPWLECEPGLHADEGKALEACRIANDEMARVVARFPDRLIGVALIPTTTEQAMIQETTRAVKELGMAGVALFVGPTAKPPDMACFEGLYRTCEELGAVVWMHPCRPQSYADYDSYKGEGSKHQIWNTFGWIYDTSVAMVHIALAGVFRRYPGLKVVTHHHGAMVPFFTARFDTQRRNFQEVEGDDLLEDLRLFYCDTATFGESAANIQQAIDFFGKSQVLFGTDTPMDMGTRGMFTRTTIASVEALGAAPEDKESFYAGNVLDMLGERFAGISGARGAVAARPKGDSTRIAASL	Low
54 (protein, listed as Streptomyces sp.) MAKIIALEEHFSDPAVAKAGAARAQALSPGFAASYSPASGLPYSPSPEVLENLAEKRLADMDAGGITMQVLSGLGAQTVPADVAPALVAGSNDKAAAAVRAHPDRFAAFAALPTAAPEAAVAELDRSINELGFVGTLIMGRTEGEFLDAPRFEPILARAAALKVPVFLHPGVPPREITDSNYAAGLPTGIGTRLQTAAWGWHQETAVHFLHLVHSGVLDRYPGLQFILGHWGEMIPFYLDRVDEALPQRATGLDRSFHEYFRENVYLAPSGMWSQAQLRFCLETVPLERIVFAVDYPFIGNEGAVPFLEKAELPEADKRKIAHENAERLLGL	High
13 (protein, listed as Metarhizium acridum) MAHGKVALEEAFALPRLHEKTRWWASLFAVNPDKHAAEMTDITDIRINYMDKHGVGYTILSYTAPGVQDISDPKEAQALAVEINDYVAGAIKNHPDRFGAFATLSMRNPQEAATELKRCVTQYGFKGALVNDTQRAGEDDMIFYDGPEWDVFWSTVEELDVPFYLHPRNPTGSLYEKLWAKRKWLVGPPLSFAQGVSLHVLGMVTNGVFDRHPKLQVVLGHLGEHIPFDMWRINHWFEDVKKPLGLDCKKTIREYFQQNIWITTSGHFSTTTLQFCMAEVGADRILFSIDYPFECFADACDWYDGVPINLVDKAKIGRDNARRLFKLPEFKDSEKHVDA	No
53 (protein, listed as Granulicella tundricola) MARTITLEEHFVTDSFLRATGAYDKPAPPWLAQLQPKLLDLGDGRIAAMDEAGIDLQVLSLAALGFDALDAATATPLVHDINDELAAAVRANPTRLAAFASLALKDPQSAARELERAIQKLGFRGVLLDGTTDGLFLDDPRFTPVFEAAVALNVPIYLHPAPPPESVFDTYFTGLPEGVGQMLSIAGWGWHAETALHTLRLITNGVFDRYPTLQLIIGHMGEMLPMALARTSKALSHAARLRQPVAAYFQSNIHLTTSGYFTQPPLRCALDVVGIDRLMFSIDYPFSANTLGRDYLTELEQTLTPEDLAKLIHRNAESLLNLS	High
